Please respond with reported ED50 for every item in the list.
Test system: Dopamine D2 receptor (Mus musculus)
METHOD: post-synaptic dopamine […] antagonist activity evaluated by inhibition of the apomorphine-induced stereotyped behavior in mice.
One number for each entry, in µmol/kg.

// worked examples, ED50 included
Enquiry: Please report the measured ED50 for `Cc1c(Br)cccc1N1CCN(CCCCOc2ccc3ccc(O)nc3c2)CC1`
Return: 2.1

Enquiry: Please report the measured ED50 for `Cc1c(Cl)cccc1N1CCN(CCCCOc2ccc3ccc(O)nc3c2)CC1`
Return: 2.8

Enquiry: Please report the measured ED50 for `Cc1cccc(N2CCN(CCCOc3ccc4ccc(O)nc4c3)CC2)c1C`
Return: 41.3

Next up:
Enquiry: Please report the measured ED50 for `Cc1cccc(N2CCN(CCCOc3ccc4c(c3)NC(=O)CC4)CC2)c1C`
Return: 26

* * *

SYSTEM_UNDER_TEST: Alpha-1 adrenergic receptor (Mus musculus) (UniProt P97714+P97717+P97718)
Sequence (P97714 whole entry, looked up): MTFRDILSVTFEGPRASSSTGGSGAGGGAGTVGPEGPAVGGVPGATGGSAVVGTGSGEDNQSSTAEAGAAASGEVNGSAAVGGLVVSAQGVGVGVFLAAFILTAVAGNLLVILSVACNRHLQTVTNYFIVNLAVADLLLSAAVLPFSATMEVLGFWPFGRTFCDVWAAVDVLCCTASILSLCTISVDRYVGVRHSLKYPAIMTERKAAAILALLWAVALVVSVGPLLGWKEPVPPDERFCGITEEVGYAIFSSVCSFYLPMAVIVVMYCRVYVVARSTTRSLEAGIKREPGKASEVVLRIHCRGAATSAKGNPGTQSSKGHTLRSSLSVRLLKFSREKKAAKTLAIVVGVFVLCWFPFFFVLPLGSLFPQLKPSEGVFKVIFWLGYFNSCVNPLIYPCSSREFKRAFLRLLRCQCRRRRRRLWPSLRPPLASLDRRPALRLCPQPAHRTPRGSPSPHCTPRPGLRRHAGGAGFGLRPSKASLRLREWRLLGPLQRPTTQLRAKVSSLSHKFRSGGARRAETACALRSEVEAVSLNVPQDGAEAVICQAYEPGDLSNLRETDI
Sequence (P97717 whole entry, looked up): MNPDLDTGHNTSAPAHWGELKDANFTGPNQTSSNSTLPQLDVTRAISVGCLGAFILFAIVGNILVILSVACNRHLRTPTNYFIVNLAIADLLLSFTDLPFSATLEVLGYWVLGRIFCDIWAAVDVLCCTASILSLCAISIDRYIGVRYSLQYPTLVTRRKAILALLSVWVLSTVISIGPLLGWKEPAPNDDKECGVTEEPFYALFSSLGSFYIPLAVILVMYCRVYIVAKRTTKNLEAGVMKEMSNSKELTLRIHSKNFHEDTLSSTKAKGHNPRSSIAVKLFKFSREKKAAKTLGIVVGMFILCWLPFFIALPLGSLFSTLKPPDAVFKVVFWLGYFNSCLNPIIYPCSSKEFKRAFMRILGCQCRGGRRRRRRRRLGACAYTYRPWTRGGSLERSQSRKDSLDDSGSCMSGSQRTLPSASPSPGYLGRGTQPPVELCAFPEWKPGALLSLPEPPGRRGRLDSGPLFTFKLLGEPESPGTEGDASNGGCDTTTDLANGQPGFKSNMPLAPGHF
Sequence (P97718 whole entry, looked up): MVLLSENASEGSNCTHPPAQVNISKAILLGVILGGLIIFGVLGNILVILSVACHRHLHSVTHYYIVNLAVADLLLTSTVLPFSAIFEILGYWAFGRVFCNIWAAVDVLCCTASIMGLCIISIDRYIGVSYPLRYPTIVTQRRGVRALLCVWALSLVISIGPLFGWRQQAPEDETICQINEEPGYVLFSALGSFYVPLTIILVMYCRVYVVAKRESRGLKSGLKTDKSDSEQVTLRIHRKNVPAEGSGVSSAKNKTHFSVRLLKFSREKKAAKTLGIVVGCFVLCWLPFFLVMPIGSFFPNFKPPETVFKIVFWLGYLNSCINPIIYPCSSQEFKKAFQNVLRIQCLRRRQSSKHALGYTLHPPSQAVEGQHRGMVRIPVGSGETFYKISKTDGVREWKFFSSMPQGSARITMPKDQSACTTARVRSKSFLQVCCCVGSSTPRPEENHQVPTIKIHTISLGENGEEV
METHOD: Inhibition of the lethal effects of noradrenaline in mice (alpha-1 induced adrenoceptor antagonist activity)
Type: functional
ASSAY_ENDPOINT: ED50

// worked examples, ED50 included
Enquiry: Please report the measured ED50 for `Cc1c(Cl)cccc1N1CCN(CCCCOc2ccc3ccc(O)nc3c2)CC1`
Return: > 299 µmol/kg

Enquiry: Please report the measured ED50 for `Cc1cccc(N2CCN(CCCCOc3ccc4ccc(O)nc4c3)CC2)c1C`
Return: > 156 µmol/kg

Next up:
Enquiry: Please report the measured ED50 for `CCOc1ccccc1N1CCN(CCCCOc2ccc3ccc(O)nc3c2)CC1`
Return: > 127 µmol/kg

* * *

Please respond with reported log10(ED50) for every item in the list.
Species on record: Mus musculus
METHOD: Inhibition of the GBL-induced increase in DOPA accumulation in mice(DA auto receptor agonist activity)
Assay type: functional
// stored as log10 of ED50 expressed in µmol/kg

// worked examples, log10(ED50) included
Enquiry: Please report the measured log10(ED50) for `Cc1c(Cl)cccc1N1CCN(CCCCOc2ccc3c(c2)NC(=O)CC3)CC1`
Return: 0.54

Enquiry: Please report the measured log10(ED50) for `Cc1cccc(N2CCN(CCCCOc3ccc4c(c3)NC(=O)CC4)CC2)c1C`
Return: 0.96

Provide log10(ED50) for all items below, preserving their order.
1. Cc1c(Br)cccc1N1CCN(CCCCOc2ccc3c(c2)NC(=O)CC3)CC1
2. CCOc1ccccc1N1CCN(CCCCOc2ccc3c(c2)NC(=O)CC3)CC1
3. Cc1cccc(N2CCN(CCCCOc3ccc4ccc(O)nc4c3)CC2)c1C

Return:
0.11
-0.19
0.59

* * *

Please respond with reported Ratio for every item in the list.
METHOD: ratio between ED50 values of DA receptor antagonist activity and catalepsy.
Format: functional
Answers are plain numbers.

Enquiry: Please report the measured Ratio for `Cc1c(N2CCN(CCCCOc3ccc4c(c3)NC(=O)CC4)CC2)cccc1[N+](=O)[O-]`
Return: 8.7

Enquiry: Please report the measured Ratio for `Cc1cccc(N2CCN(CCCCOc3ccc4ccc(O)nc4c3)CC2)c1C`
Return: 3.1

Next up:
Enquiry: Please report the measured Ratio for `Cc1c(Cl)cccc1N1CCN(CCCCOc2ccc3ccc(O)nc3c2)CC1`
Return: 4.5

* * *

SYSTEM_UNDER_TEST: Alpha-1 adrenergic receptor (Mus musculus) (UniProt P97714+P97717+P97718)
METHOD: Inhibition of the lethal effects of noradrenaline in mice (alpha-1 induced adrenoceptor antagonist activity)
Assay type: functional
ASSAY_ENDPOINT: ED50

// worked examples, ED50 included
Enquiry: Write down the reported ED50 (system: Alpha-1 adrenergic receptor (Mus musculus) (UniProt P97714+P97717+P97718)) of `Cc1cccc(N2CCN(CCCCOc3ccc4c(c3)NC(=O)CC4)CC2)c1Cl`
Return: > 150 µmol/kg

Enquiry: Write down the reported ED50 (system: Alpha-1 adrenergic receptor (Mus musculus) (UniProt P97714+P97717+P97718)) of `Cc1cccc(N2CCN(CCCCOc3ccc4c(c3)NC(=O)CC4)CC2)c1C`
Return: > 314 µmol/kg

Enquiry: Write down the reported ED50 (system: Alpha-1 adrenergic receptor (Mus musculus) (UniProt P97714+P97717+P97718)) of O=C1CCc2ccc(OCCCCN3CCN(c4cccc(Cl)c4Cl)CC3)cc2N1 [ARIPIPRAZOLE]
Return: > 286 µmol/kg

Provide ED50 for all items below, preserving their order.
1. Oc1ccc2ccc(OCCCCN3CCN(c4cccc(Cl)c4Cl)CC3)cc2n1
2. O=C1CCc2ccc(OCCCCN3CCN(c4cc(Cl)cc(Cl)c4)CC3)cc2N1

Return:
> 287 µmol/kg
> 256 µmol/kg

* * *

Species on record: Mus musculus
METHOD: Inhibition of the GBL-induced increase in DOPA accumulation in mice(DA auto receptor agonist activity)
Format: functional
ASSAY_ENDPOINT: ED50 (µmol/kg)
Give bare numbers, in µmol/kg.

// worked examples, ED50 included
Enquiry: Please report the measured ED50 for O=C1CCc2ccc(OCCCCN3CCN(c4cccc(Cl)c4Cl)CC3)cc2N1 [ARIPIPRAZOLE]
Return: 5.1

Enquiry: Please report the measured ED50 for `Cc1cccc(N2CCN(CCCOc3ccc4ccc(O)nc4c3)CC2)c1C`
Return: 3.5

Next:
Enquiry: Please report the measured ED50 for `Cc1c(Cl)cccc1N1CCN(CCCCOc2ccc3ccc(O)nc3c2)CC1`
Return: 20.1

* * *

Test system: Dopamine D2 receptor (Mus musculus)
METHOD: post-synaptic dopamine […] antagonist activity evaluated by inhibition of the apomorphine-induced stereotyped behavior in mice.
Could you please mark satisfied for values of ED50 below 0.9 µmol/kg and not satisfied for values at or above it?

Known results for molecules:
Enquiry: # check: ED50 < 0.9 µmol/kg for `CCOc1ccccc1N1CCN(CCCCOc2ccc3ccc(O)nc3c2)CC1`
Return: satisfied

Enquiry: # check: ED50 < 0.9 µmol/kg for `Cc1c(C#N)cccc1N1CCN(CCCCOc2ccc3c(c2)NC(=O)CC3)CC1`
Return: not satisfied

Enquiry: # check: ED50 < 0.9 µmol/kg for `Cc1cccc(N2CCN(CCCCOc3ccc4ccc(O)nc4c3)CC2)c1C`
Return: not satisfied

Next:
Enquiry: # check: ED50 < 0.9 µmol/kg for `Cc1c(N2CCN(CCCCOc3ccc4c(c3)NC(=O)CC4)CC2)cccc1[N+](=O)[O-]`
Return: satisfied

* * *

Organism: Mus musculus
METHOD: Inhibition of the GBL-induced increase in DOPA accumulation in mice(DA auto receptor agonist activity)
Format: functional
ASSAY_ENDPOINT: ED50

// worked examples, ED50 included
Enquiry: Please report the measured ED50 for `Cc1c(N2CCN(CCCCOc3ccc4c(c3)NC(=O)CC4)CC2)cccc1[N+](=O)[O-]`
Return: > 23 µmol/kg

Enquiry: Please report the measured ED50 for `CCOc1ccccc1N1CCN(CCCCOc2ccc3ccc(O)nc3c2)CC1`
Return: > 20 µmol/kg

Enquiry: Please report the measured ED50 for `O=C1CCc2ccc(OCCCCN3CCN(c4cc(Cl)cc(Cl)c4Cl)CC3)cc2N1`
Return: > 21 µmol/kg

Provide ED50 for all items below, preserving their order.
1. O=C1CCc2ccc(OCCCCN3CCN(c4cc(Cl)cc(Cl)c4)CC3)cc2N1
2. Cc1cccc(N2CCN(CCCCOc3ccc4c(c3)NC(=O)CC4)CC2)c1Br

Return:
1: > 22 µmol/kg; 2: > 21 µmol/kg
